target: Env of HIV-1 strain 231965.c1 (HIV-1); test: cell-based or functional assay
assay.metric: neutralization IC50 (µg/mL)
Provide only the numeric value, understood in µg/mL.

binder: γ46κ61 (antibody, V domains shown) VH: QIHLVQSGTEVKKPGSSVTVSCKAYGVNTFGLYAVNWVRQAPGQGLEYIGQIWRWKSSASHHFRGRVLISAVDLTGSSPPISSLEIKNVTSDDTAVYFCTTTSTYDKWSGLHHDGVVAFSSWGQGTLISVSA VL: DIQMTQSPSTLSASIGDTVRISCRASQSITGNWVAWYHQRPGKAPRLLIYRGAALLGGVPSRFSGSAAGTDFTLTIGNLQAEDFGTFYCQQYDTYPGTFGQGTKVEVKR
assay.metric: neutralization IC50
unit.of.measurement: µg/mL
result.value: 1.58

Item: 8ANC195 IgG (antibody, V domains shown) VH: QIHLVQSGTEVKKPGSSVTVSCKAYGVNTFGLYAVNWVRQAPGQSLEYIGQIWRWKSSASHHFRGRVLISAVDLTGSSPPISSLEIKNLTSDDTAVYFCTTTSTYDKWSGLHHDGVMAFSSWGQGTLISVSA VL: DIQMTQSPSTLSASIGDTVRISCRASQSITGNWVAWYQQRPGKAPRLLIYRGAALLGGVPSRFSGSAAGTDFTLTIGNLQAEDFGTFYCQQYDTYPGTFGQGTKVEV | neutralization IC50: 0.514
